target-desc: UniProt:P27361
protocol: Kinase assay (Caliper, FAM-labeled peptide), ERK1
Format: biochemical
Threshold 1 nM: IC50 strictly smaller gives condition met, otherwise condition not met.

compound	qualitative-label
Cc1cnc(NC2COC2)nc1-c1cc2n(c1)CCN(Cc1cc(F)ccc1CO)C2=O	condition met
CC(C)Nc1cc(-c2cc3n(c2)CC(CO)(CO)CN(Cc2ccccc2CO)C3=O)c(Cl)cn1	condition met
CC(C)Nc1cc(-c2cc3n(c2)CC2(CN(C)C2)CN(Cc2ccccc2CO)C3=O)c(Cl)cn1	condition not met
COC[C@H]1Cn2cc(-c3cc(Nc4c(C)noc4C)ncc3Cl)cc2C(=O)N1Cc1cc(F)ccc1CO	condition not met
CC(C)Nc1cc(-c2cc3n(c2)CC2(COC2)CN(Cc2ccc(F)cc2CO)C3=O)c(Cl)cn1	condition met
COC(=O)C1Cn2cc(-c3cc(NC(C)C)ncc3Cl)cc2C(=O)N1Cc1cc(F)ccc1CO (centres unmarked)	condition met

Query block: Does the reported IC50 of `Cc1cnc(Nc2cccc3cnn(C)c23)nc1-c1cc2n(c1)CCN(Cc1cc(F)ccc1CO)C2=O` stay below 1 nM?
Result block: condition not met

Query block: Hello, is IC50 of the following compound strictly smaller than 1 nM? `COC[C@H]1Cn2cc(-c3cc(Nc4ccn(CC(F)F)n4)ncc3Cl)cc2C(=O)N1Cc1cc(F)ccc1CO`
Result block: condition not met

Query block: Strictly below 1 nM: is that where IC50 of `CC(C)Nc1cc(-c2cc3n(c2)C[C@H](CO)N(Cc2cc(F)ccc2CO)C3=O)c(Cl)cn1` sits?
Result block: condition met

Query block: Please state whether IC50 is below 1 nM for `COC[C@H]1Cn2cc(-c3cc(NC(=O)c4csc(C)n4)ncc3Cl)cc2C(=O)N1Cc1cc(F)ccc1CO`
Result block: condition not met

Query block: State whether 1 nM exceeds IC50 recorded for `COC[C@H]1Cn2cc(-c3cc(NC4CCOCC4)ncc3Cl)cc2C(=O)N1Cc1cc(F)ccc1CO` .
Result block: condition met

---

target-desc: ERK1 (Homo sapiens, UniProt P27361)
Sequence (P27361 whole entry): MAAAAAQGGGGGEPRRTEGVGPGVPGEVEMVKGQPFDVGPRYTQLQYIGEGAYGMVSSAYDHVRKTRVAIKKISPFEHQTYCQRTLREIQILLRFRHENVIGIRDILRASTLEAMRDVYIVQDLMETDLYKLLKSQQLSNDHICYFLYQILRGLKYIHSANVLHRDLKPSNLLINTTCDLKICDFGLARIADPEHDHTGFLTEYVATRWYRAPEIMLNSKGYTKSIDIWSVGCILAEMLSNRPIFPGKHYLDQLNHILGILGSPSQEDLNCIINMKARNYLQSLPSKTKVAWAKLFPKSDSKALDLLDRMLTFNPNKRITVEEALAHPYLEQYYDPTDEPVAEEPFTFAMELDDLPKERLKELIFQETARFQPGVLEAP
protocol: Kinase assay (Caliper, FAM-labeled peptide), ERK1
Format: biochemical
IC50: recorded values
Please state the figure in nM; there is no need to write the unit.

Past entries and their recorded results:
molecule	target-desc	measurement-units	value-reported
O=C1c2cc(-c3cc(NC4CC(F)(F)C4)ncc3Cl)cn2CCN1Cc1cc(F)ccc1CO	ERK1 (Homo sapiens, UniProt P27361)	nM	0.65
COC[C@H]1Cn2cc(-c3ccnc(NC4CCOCC4)c3)cc2C(=O)N1Cc1cc(F)ccc1CO	ERK1 (Homo sapiens, UniProt P27361)	nM	1.6
O=C1c2cc(-c3cc(NC4CCOCC4)ncc3Cl)cn2CCN1Cc1cc(F)ccc1CO	ERK1 (Homo sapiens, UniProt P27361)	nM	0.57
CC(C)Nc1cc(-c2cc3n(c2)CC2(COC(C)(C)OC2)CN(Cc2ccccc2CO)C3=O)c(Cl)cn1	ERK1 (Homo sapiens, UniProt P27361)	nM	1.3
CCc1ccccc1Nc1ncc(C)c(-c2cc3n(c2)CCN(Cc2cc(F)ccc2CO)C3=O)n1	ERK1 (Homo sapiens, UniProt P27361)	nM	0.8

Query block: Returns the measured IC50 for the input molecule. Input: CC(C)Nc1cc(-c2cc3n(c2)CC(O)CN(Cc2cc(F)ccc2CO)C3=O)c(Cl)cn1 (centres unmarked)
Result block: 0.34

Query block: Reported IC50 for `COC[C@H]1Cn2cc(-c3cc(NC(C)C)ncc3Cl)cc2C(=O)N1Cc1cc(F)ccc1CO` : what is it?
Result block: 0.2

Query block: Consider the molecule shown here: COC[C@H]1Cn2cc(-c3cc(NC4CCC(OC)CC4)ncc3Cl)cc2C(=O)N1Cc1cc(F)ccc1CO (some centres unmarked) What is its recorded IC50?
Result block: 0.9

Query block: Given `Cc1cnc(Nc2cccc3c2OCCO3)nc1-c1cc2n(c1)CCN(Cc1cc(F)ccc1CO)C2=O` , state its recorded IC50.
Result block: 1.6

Query block: If you can, please state the reported IC50 value of COC[C@H]1Cn2cc(-c3cc(NC4COC(C)(C)C4)ncc3Cl)cc2C(=O)N1Cc1cc(F)ccc1CO (some centres unmarked) .
Result block: 0.36

Query block: So what's the measured IC50 for this one? Cc1cnc(NC2CCOC2)nc1-c1cc2n(c1)CCN(Cc1cc(F)ccc1CO)C2=O (centres unmarked)
Result block: 0.45

---

Reported IC50 by item:
Tested on: HCT 116 cells
protocol: Cell proliferation assay (HCT 116), Cell-titer Glo
Assay type: cell-based
condition-notes: Homo sapiens, 120 h incubation
Provide only the numeric value, understood in nM.

Consider the following illustrative entries.
molecule	target-desc	IC50 / nM
Cn1nccc1Nc1cc(-c2cc3n(c2)CCN(Cc2cc(F)c(F)cc2CO)C3=O)c(Cl)cn1 [Example 160]	HCT 116 cells	10.7
COC[C@H]1Cn2cc(-c3cc(Nc4ccnn4C)ncc3Cl)cc2C(=O)N1Cc1ccc(F)cc1CO [Example 99]	HCT 116 cells	18
COC[C@H]1Cn2cc(-c3cc(NC4CCOCC4)ncc3Cl)cc2C(=O)N1Cc1cc(F)ccc1CO [Example 62]	HCT 116 cells	7.99
Cn1nccc1Nc1cc(-c2cc3n(c2)CCN(Cc2cc(F)cc(F)c2CO)C3=O)c(Cl)cn1 [Example 148]	HCT 116 cells	6.3
COC[C@H]1Cn2cc(-c3cc(Nc4ccnn4C)ncc3Cl)cc2C(=O)N1Cc1cc(F)c(F)c(F)c1CO [Example 168]	HCT 116 cells	8.4

Proceed to the following item.
Query block: Fill in the recorded IC50 for this molecule, with HCT 116 cells as test system: COC[C@H]1Cn2cc(-c3cc(Nc4ccnn4C)ncc3Cl)cc2C(=O)N1Cc1cc(F)ccc1CO [Example 45]
Result block: 6.2

---

Collected log10(IC50) values appear next to each entry.
target-desc: ERK1 (Homo sapiens, UniProt P27361)
protocol: Kinase assay (Caliper, FAM-labeled peptide), ERK1
Type: biochemical
Transform log10 | Measure IC50 | Unit nM

Guide cases for log10(IC50), answers given:
compound	log10(IC50)
CC(C)Nc1cc(-c2c[nH]c(C(=O)NCc3ccccc3CO)c2)c(Cl)cn1	0.48
CC(C)Nc1cc(-c2c[nH]c(C(=O)NCc3cccc(F)c3)c2)c(Cl)cn1 [Example D6, reference compound]	1.64
CCNc1ncc(Cl)c(-c2cc3n(c2)C[C@H](COC)N(Cc2cc(F)ccc2CO)C3=O)n1	-0.08

Query block: Look up log10(IC50): `CC(C)Nc1cc(-c2cnc(C(=O)NCc3ccc(F)cc3CO)s2)c(Cl)cn1`
Result block: 0.26

Query block: GET /values?readout=log10(IC50)&item= `Cc1cnc(Nc2ccnn2C)nc1-c1c[nH]c(C(=O)NCc2cc(F)ccc2CO)c1`
Result block: -0.37

Query block: Any idea what log10(IC50) was measured for `CC(C)Nc1cc(-c2cc3n(c2)CC2(COC2)CN(Cc2cc(F)ccc2CO)C3=O)c(Cl)cn1` ?
Result block: -0.05

Query block: Quick check: log10(IC50) of `CC(C)Nc1cc(-c2cc3n(c2)CC2(COC2)CN(Cc2ccccc2CO)C3=O)c(Cl)cn1` ?
Result block: -0.10

Query block: Quick one: log10(IC50) of `Cc1cnc(NC(C)C)nc1-c1cc2n(c1)CCN(Cc1cc(F)ccc1CO)C2=O` ?
Result block: -0.28

---

target-desc: ERK2 (Homo sapiens, UniProt P28482)
Sequence (P28482 whole entry): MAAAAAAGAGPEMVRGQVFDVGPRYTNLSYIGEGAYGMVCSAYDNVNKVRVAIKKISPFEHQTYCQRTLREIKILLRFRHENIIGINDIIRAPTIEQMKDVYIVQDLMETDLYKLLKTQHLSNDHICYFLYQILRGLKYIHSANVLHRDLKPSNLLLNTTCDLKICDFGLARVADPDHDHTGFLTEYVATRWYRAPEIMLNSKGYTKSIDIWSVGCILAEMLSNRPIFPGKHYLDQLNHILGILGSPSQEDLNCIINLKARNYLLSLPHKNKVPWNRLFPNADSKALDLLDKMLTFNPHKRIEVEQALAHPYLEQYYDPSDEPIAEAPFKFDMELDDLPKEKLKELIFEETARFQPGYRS
protocol: Kinase assay (Caliper, FAM-labeled peptide), ERK2
Type: biochemical
Reported IC50 values for the following compounds.
I only need the number, in nM, no unit after it.

Illustrative cases are given below, each with its answer.
compound	IC50 / nM
Cc1cnc(Nc2cccc3cnn(C)c23)nc1-c1cc2n(c1)CCN(Cc1cc(F)ccc1CO)C2=O	1.1
COC[C@H]1Cn2cc(-c3cc(Nc4c(C)cnn4C)ncc3Cl)cc2C(=O)N1Cc1cc(F)ccc1CO	0.97
O=C1c2cc(-c3cc(NC4CC(F)(F)C4)ncc3Cl)cn2CCN1Cc1cc(F)ccc1CO	0.89
COC[C@H]1Cn2cc(-c3cc(Nc4ccnn4CC(F)F)ncc3Cl)cc2C(=O)N1Cc1cc(F)ccc1CO	1.2

Query block: Observed IC50 on ERK2 (Homo sapiens, UniProt P28482) for COCC1Cn2cc(-c3cc(NC4CCN(C(C)C)CC4)ncc3Cl)cc2C(=O)N1Cc1cc(F)ccc1CO (stereo not drawn) , please.
Result block: 0.9

Query block: Identify the measured IC50 of `COC[C@H]1Cn2cc(-c3cc(NC(C)C)ncc3Cl)nc2C(=O)N1Cc1cc(F)ccc1CO` for ERK2 (Homo sapiens, UniProt P28482).
Result block: 1.4

---

target-desc: UniProt P27361
protocol: Kinase assay (Caliper, FAM-labeled peptide), ERK1
Type: biochemical
The following compounds are shown together with reported IC50 values.

compound	IC50
CC(C)Nc1cc(-c2cc3n(c2)CC(CO)CN(Cc2cccc(Cl)c2)C3=O)c(Cl)cn1 (stereo not shown) [Example D7, reference compound]	> 300 nM
COCC1(CO)CN(Cc2cc(F)ccc2CO)C(=O)c2cc(-c3cc(NC(C)C)ncc3Cl)cn2C1 (stereo not shown)	0.95 nM
COC[C@H]1Cn2cc(-c3cc(NC4CCCC4)ncc3Cl)cc2C(=O)N1Cc1cc(F)ccc1CO	1.1 nM
COC[C@H]1Cn2cc(-c3cc(NC4CCOC(C)(C)C4)ncc3Cl)cc2C(=O)N1Cc1cc(F)ccc1CO (stereo partly shown)	0.87 nM
Cc1cnc(Nc2cccc3c2cnn3C)nc1-c1cc2n(c1)CCN(Cc1cc(F)ccc1CO)C2=O	0.93 nM
COC[C@H]1Cn2cc(-c3cc(NC(C)=O)ncc3Cl)cc2C(=O)N1Cc1cc(F)ccc1CO	0.4 nM

Query block: Any idea what its IC50 is? The compound is `COC[C@H]1Cn2cc(-c3cc(N[C@H]4CC[C@H](O)CC4)ncc3Cl)cc2C(=O)N1Cc1cc(F)ccc1CO`
Result block: 1.1 nM
